Data credit: patent US6979686B1

biological target: human p38 kinase alpha (Homo sapiens); construct: GST (N, cleaved yes); made in house; host or cells: E. coli DH10B; experiment: p38 kinase in vitro assay, phosphorylation of biotinylated PHAS-I with 32P-ATP; type: biochemical; conditions: in vitro P38-alpha kinase inhibition; read-out: P38 alpha kinase IC50
Sequence (Q16539 whole entry): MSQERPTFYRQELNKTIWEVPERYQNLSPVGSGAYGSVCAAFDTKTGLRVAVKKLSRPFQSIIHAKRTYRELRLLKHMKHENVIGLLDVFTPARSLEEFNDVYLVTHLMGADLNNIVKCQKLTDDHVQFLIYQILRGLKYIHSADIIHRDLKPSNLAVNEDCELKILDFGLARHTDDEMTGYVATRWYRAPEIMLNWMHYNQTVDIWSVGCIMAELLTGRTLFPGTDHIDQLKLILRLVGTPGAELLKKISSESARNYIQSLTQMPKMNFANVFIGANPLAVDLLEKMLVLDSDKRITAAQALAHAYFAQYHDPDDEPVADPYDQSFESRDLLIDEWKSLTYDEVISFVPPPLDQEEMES
measured.metric: IC50 (nM)

molecule | IC50, nM
CC(C)c1cc(C(C)C)c(C(=O)NCCc2[nH]nc(-c3ccc(F)cc3)c2-c2ccncc2)c(C(C)C)c1 | 560
O=S(=O)(NCCc1[nH]nc(-c2ccc(F)cc2)c1-c1ccncc1)c1cccc2ccccc12 | 220
Cc1ccc(C)c(S(=O)(=O)NC(C)c2[nH]nc(-c3ccc(F)cc3)c2-c2ccncc2)c1 (stereo not drawn) | 580

(P) O=C(NC(Cc1ccccc1)c1[nH]nc(-c2ccc(F)cc2)c1-c1ccncc1)c1ccccc1 (stereo not drawn) [Example B-0851]
(Q) CNC(=O)NC(Cc1ccccc1)c1[nH]nc(-c2ccc(F)cc2)c1-c1ccncc1 (stereo not drawn) [Example B-0775]
Problem: Please choose the item with the lower IC50 value from this pair: P and Q Choose, then provide that item's label.
Solution: Q

(a) Cc1c(C)c(S(=O)(=O)NC(C)c2[nH]nc(-c3ccc(F)cc3)c2-c2ccncc2)c(C)c2c1OC(C)(C)CC2 (stereo not drawn)
(b) CCS(=O)(=O)NC(C)c1[nH]nc(-c2ccc(F)cc2)c1-c1ccncc1 (stereo not drawn)
Problem: Please choose the item with the lower IC50 value from this pair: a and b Choose, then provide that item's label.
Solution: b
(b: 270 nM, a: 2640 nM)

(a) O=C(Nc1ccccc1)NC(Cc1ccccc1)c1[nH]nc(-c2ccc(F)cc2)c1-c1ccncc1 (stereo not drawn)
(b) CC(NC(=O)c1cnc2ccccc2n1)c1[nH]nc(-c2ccc(F)cc2)c1-c1ccncc1 (stereo not drawn)
Problem: For this pair, a and b , which shows a numerically higher IC50? Choose, then provide that item's label.
Solution: a
(a: 22000 nM, b: 2070 nM)

(P) CC(=O)OC(C)C(=O)NC(C)c1[nH]nc(-c2ccc(F)cc2)c1-c1ccncc1 (stereo not drawn)
(Q) CN(C(=O)NC(Cc1ccccc1)c1[nH]nc(-c2ccc(F)cc2)c1-c1ccncc1)c1ccccc1 (stereo not drawn) [Example B-0731]
Problem: For this pair, P and Q , which shows a numerically higher IC50? Choose, then provide that item's label.
Solution: P

* * *

molecular target: human p38 kinase alpha (Homo sapiens); construct: GST (N, cleaved yes); made in house; host or cells: E. coli DH10B; experiment: p38 kinase in vitro assay, phosphorylation of biotinylated PHAS-I with 32P-ATP; assay type: biochemical; settings: in vitro P38-alpha kinase inhibition; read-out: P38 alpha kinase IC50
measured.metric: IC50 (nM)

molecule | assay.value
CC(=O)OC(C)C(=O)NC(Cc1ccccc1)c1[nH]nc(-c2ccc(F)cc2)c1-c1ccncc1 (stereo not shown) [Example B-0809] | 1220

(a) C=CCNC(=O)NC(C)c1[nH]nc(-c2ccc(F)cc2)c1-c1ccncc1 (stereo not shown)
(b) COc1ccc(S(=O)(=O)NC(Cc2ccccc2)c2[nH]nc(-c3ccc(F)cc3)c2-c2ccncc2)cc1OC (stereo not shown) [Example B-0767]
Problem: Please choose the item with the lower IC50 value from this pair: a and b Choose, then provide that item's label.
Solution: b
(b: 80 nM, a: 1710 nM)
